- measured target: native aSyn aggregates in A30P transgenic mouse brain sections (Homo sapiens, UniProt P37840, A30P)
- Construct: from tissue; host or cells: brain sections (midbrain and pons as ROI) of A30P transgenic mice, line B6.D2-Tg(Thy1-SNCA*30P)31Pjk
- experimental details: aSyn in vitro displacement assay ([3H]Example-3 autoradiography)
- Format: binding, mutant human aSyn gene)
- test context: 1 μM compound; 3 nM [3H]Example-3; A30P transgenic mouse brain sections; read-out: PCT_INHIB A30P @ 1 μM (% displacement of [3H]Example-3)
reported property: inhibition at 1 µM (%)

1. COc1ccc(C(=O)Nc2ccc(N3CCN(c4ccc(C#N)cn4)CC3)cc2)cc1C [Example 170]: 86
2. COc1ccc(C(=O)Nc2ccc(N3CCN(c4cc(C)c(C#N)cn4)CC3)cc2)cc1 [Example 151]: 93
3. Cc1ccc(C(=O)Nc2ccc(N3CCN(c4cccnc4)CC3)cc2)cc1 [Example 37]: 94
4. COc1ccc(C(=O)Nc2ccc(N3CCN(c4ccc(C#N)cc4)CC3)cc2)cc1F [Example 163]: 94
5. Cc1ccc(C(=O)Nc2ccc(N3CCN(c4ccccn4)CC3)cc2)cc1 [Example 5]: 99
6. COc1ccc(C(=O)Nc2cnc(N3CCN(c4ccccn4)CC3)cn2)c(F)c1 [Example 84]: 88
7. COc1ccc(C(=O)Nc2ccc(N3CCN(c4ccccc4F)CC3)cc2)cc1 [Example 71]: 101
8. COc1ccc(C(=O)Nc2ccc(N3CCN(c4cccs4)CC3)cc2)cc1 [Example 66]: 104
9. N#Cc1ccc(N2CCN(c3ccc(NC(=O)c4ccncc4)cc3)CC2)nc1 [Example 161]: 84
